System: NF-κB
assay remarks: Test on the function of inhibiting the activation of NF-κB induced by ultraviolet rays (gel shift assay)
Assay type: cell-based, human
details: addition concentration 0.01 mM; human epidermal cells, UVB 50 mJ/cm^2
Inhibition ratio (%) of NF-κB activation reference

compound: CCCCCCCCCCCC(=O)N[C@@H](CSSC[C@H](NC(=O)CCCCCCCCCCC)C(=O)OC)C(=O)OC
Inhibition ratio (%) of NF-κB activation: 52%

compound: COC(=O)[C@H](CSSC[C@H](NC(C)=O)C(=O)OC)NC(C)=O
Inhibition ratio (%) of NF-κB activation: 47%

compound: CCCCC(=O)N[C@@H](CSSC[C@H](NC(=O)CCCC)C(N)=O)C(N)=O [N,N′-di(n-valeryl)-L-cystine diamide]
Inhibition ratio (%) of NF-κB activation: 8%

---

Test system: NF-κB
assay remarks: Test on the function of inhibiting the activation of NF-κB induced by ultraviolet rays (gel shift assay)
Format: cell-based, human
details: addition concentration 0.1 mM; human epidermal cells, UVB 50 mJ/cm^2
Overview of reported Inhibition ratio (%) of NF-κB activation across a group of compounds:

compound: CCCC(=O)N[C@@H](CSSC[C@H](NC(=O)CCC)C(N)=O)C(N)=O [N,N′-di(n-butyryl)-L-cystine diamide]
test system: NF-κB
Inhibition ratio (%) of NF-κB activation: 11
//
compound: CCCCCCCCCC(=O)N[C@@H](CSSC[C@H](NC(=O)CCCCCCCCC)C(=O)OC)C(=O)OC
test system: NF-κB
Inhibition ratio (%) of NF-κB activation: 68
//
compound: CCC(=O)N[C@@H](CSSC[C@H](NC(=O)CC)C(=O)OC)C(=O)OC
test system: NF-κB
Inhibition ratio (%) of NF-κB activation: 54
//
compound: COC(=O)[C@H](CSSC[C@H](NC(C)=O)C(=O)OC)NC(C)=O [N,N′-diacetyl-L-cystine dimethyl ester]
test system: NF-κB
Inhibition ratio (%) of NF-κB activation: 86
//
compound: CCCCCCCCCCCC(=O)N[C@@H](CSSC[C@H](N)C(=O)O)C(=O)O [N-lauroyl-L-cystine]
test system: NF-κB
Inhibition ratio (%) of NF-κB activation: 14
//
compound: CCCCCCCCCCCC(=O)N[C@@H](CSSC[C@H](N)C(=O)O)C(=O)OC [N-lauroyl-L-cystine methyl ester]
test system: NF-κB
Inhibition ratio (%) of NF-κB activation: 43
//
compound: CCCCCCCCCCCC(=O)N[C@@H](CSSC[C@H](NC(=O)CCCCCCCCCCC)C(=O)OC)C(=O)OC [N,N′-dilauroyl-L-cystine dimethyl ester]
test system: NF-κB
Inhibition ratio (%) of NF-κB activation: 59
//
compound: CCOC(=O)[C@H](CSSC[C@H](N)C(=O)O)NC(C)=O [N-acetyl-L-cystine ethyl ester]
test system: NF-κB
Inhibition ratio (%) of NF-κB activation: 74
//
compound: CCCCCCC(=O)N[C@@H](CSSC[C@H](NC(=O)CCCCCC)C(=O)OC)C(=O)OC
test system: NF-κB
Inhibition ratio (%) of NF-κB activation: 103
//
compound: CC(=O)N[C@@H](CSSC[C@H](NC(C)=O)C(=O)OC(C)C)C(=O)OC(C)C
test system: NF-κB
Inhibition ratio (%) of NF-κB activation: 48
//
compound: CCCC(=O)N[C@@H](CSSC[C@H](NC(=O)CCC)C(=O)OC)C(=O)OC
test system: NF-κB
Inhibition ratio (%) of NF-κB activation: 79
//
compound: COC(=O)[C@H](CCSSCC[C@H](NC(C)=O)C(=O)OC)NC(C)=O (racemic)
test system: NF-κB
Inhibition ratio (%) of NF-κB activation: 46
//
compound: CCOC(=O)[C@H](CSSC[C@H](NC(C)=O)C(=O)OCC)NC(C)=O [N,N′-diacetyl-L-cystine diethyl ester]
test system: NF-κB
Inhibition ratio (%) of NF-κB activation: 107
//
compound: CCCCCCCC(=O)N[C@@H](CSSC[C@H](NC(=O)CCCCCCC)C(=O)OC)C(=O)OC
test system: NF-κB
Inhibition ratio (%) of NF-κB activation: 91
//
compound: CCCCCC(=O)N[C@@H](CSSC[C@H](NC(=O)CCCCC)C(=O)OC)C(=O)OC
test system: NF-κB
Inhibition ratio (%) of NF-κB activation: 77
//
compound: CCCCC(=O)N[C@@H](CSSC[C@H](NC(=O)CCCC)C(N)=O)C(N)=O [N,N′-di(n-valeryl)-L-cystine diamide]
test system: NF-κB
Inhibition ratio (%) of NF-κB activation: 53

Sourced from patent US20020115723A1
